Listed below: T/C values for each entry.
System: L1210 leukemia ip in BDF1 mice, survival T/C
Assay: NCI In Vivo Anticancer Drug Screen. Data for tumor model L1210 Leukemia (intraperitoneal) in B6D2F1 (BDF1) mice
Conditions: endpoint: mean survival time; dose: 200.0 mg/kg/injection; schedule: Q01DX001 (ip); vehicle: Klucel (hydroxypropylcellulose) (HPC); higher = longer survival
Inconclusive results and toxic doses are left out.

CCOC(=O)c1ccc(N=NN(C)C(C)CC)cc1 (configuration not stated)	101 % of control
COc1cc2c(cc1OC)C1(NCC2)C(=O)c2ccccc2C1=O	106 % of control
CCCCNS(=O)(=O)c1ccc(C(N)=S)cc1	106 % of control

Kindly consider the entry below.
Sample CN(C)Cc1c[nH]c2c1S/C(=C/c1ccccc1)C2=O — what was its T/C?
96 % of control

----------
Test system: L1210 leukemia ip in BDF1 mice, survival T/C
Assay: NCI In Vivo Anticancer Drug Screen. Data for tumor model L1210 Leukemia (intraperitoneal) in B6D2F1 (BDF1) mice
Conditions: endpoint: mean survival time; dose: 100.0 mg/kg/injection; schedule: Q04DX003 (ip); vehicle: Klucel (hydroxypropylcellulose) (HPC); higher = longer survival
Inconclusive results and toxic doses are left out.
quantity: T/C

Known results for molecules:
Cc1ccc(C)c(NC(=O)N(CCO)C2CCCCC2)c1	104 % of control
COc1cccc(C)c1NC(=O)NCCCl	100 % of control
CC(N)c1ccc(OCCOc2ccc(C(C)(C)CC(C)(C)C)cc2)cc1 (configuration not stated)	96 % of control
CCOC(=O)c1cnc(SC)nc1NCc1ccccc1Cl	106 % of control
c1ccc(Cc2cncc(Cc3ccccc3)n2)cc1	101 % of control
CCCCNc1c(NCCCC)c(=O)c1=O	90 % of control

Kindly consider the entry below.
Sample COc1ccc(OCCOC(=O)Nc2ccc(C)cc2[N+](=O)[O-])cc1 — what was its T/C?
103 % of control

----------
Listed below: T/C values for each entry.
Test system: L1210 leukemia ip in BDF1 mice, survival T/C
Assay: NCI In Vivo Anticancer Drug Screen. Data for tumor model L1210 Leukemia (intraperitoneal) in B6D2F1 (BDF1) mice
Conditions: endpoint: mean survival time; dose: 400.0 mg/kg/injection; schedule: Q01DX009 (ip); vehicle: Klucel (hydroxypropylcellulose) (HPC); higher = longer survival
Inconclusive results and toxic doses are left out.

Cc1[nH]c(=O)[nH]c(=O)c1C	93 % of control

Kindly consider the entry below.
Sample CCCCCC(NC(=O)CCl)C(=O)O (configuration not stated) — what was its T/C?
92 % of control

----------
Tested on: L1210 leukemia ip in BDF1 mice, survival T/C
Assay: NCI In Vivo Anticancer Drug Screen. Data for tumor model L1210 Leukemia (intraperitoneal) in B6D2F1 (BDF1) mice
Settings: endpoint: mean survival time; dose: 400.0 mg/kg/injection; schedule: Q01DX009 (ip); vehicle: saline with Tween-80; higher = longer survival
Inconclusive results and toxic doses are left out.
Listed below: T/C values for each entry.

Known results for molecules:
Cc1ccccc1Sc1cc2ccccc2c2ccccc12	101 % of control
c1ccc(Oc2ccc(-c3ccc(Oc4ccccc4)cc3)cc2)cc1	91 % of control
C=COCCOC	107 % of control
O=C(Nc1cccc(Cl)c1)Nc1cc(Cl)ccc1Cl	94 % of control
Cc1ccccc1OS(=O)(=O)c1ccccc1[N+](=O)[O-]	108 % of control
C=C(C)COC(N)=O	91 % of control
COc1ccc(OC)c(NC(=S)NC(=O)c2ccc(Cl)cc2Cl)c1	89 % of control
CN(C(=O)CCCO)c1cc([N+](=O)[O-])ccc1OCc1ccccc1	90 % of control

Sample CC1(C)C=CC(C)(C)c2c(NS(=O)(=O)c3ccccc3)ccc(NS(=O)(=O)c3ccccc3)c21 — what was its T/C?
94 % of control

Subsequent entry: CSCSCC(NS(=O)(=O)c1ccc(C)cc1)C(=O)O (configuration not stated)
104 % of control

Subsequent entry: CCC(=O)OCC(C)([N+](=O)[O-])[N+](=O)[O-]
101 % of control

Subsequent entry: Cc1ccc(NC(=O)Nc2cccc(C(F)(F)F)c2)cc1NC(=O)Nc1cccc(C(F)(F)F)c1
103 % of control

----------
Test system: L1210 leukemia ip in BDF1 mice, survival T/C
Assay: NCI In Vivo Anticancer Drug Screen. Data for tumor model L1210 Leukemia (intraperitoneal) in B6D2F1 (BDF1) mice
Conditions: endpoint: mean survival time; dose: 200.0 mg/kg/injection; schedule: Q04DX003 (ip); vehicle: saline with Tween-80; higher = longer survival
Toxic doses and inconclusive results are not listed.
quantity: T/C

Known results for compounds:
CSc1ccc(NS(=O)(=O)CCNC(=O)C(O)C(C)(C)CO)cc1 (stereo unspecified)	96 % of control
O=[N+]([O-])c1cncc([N+](=O)[O-])c1NCc1ccccc1	93 % of control
CC(=O)NC(C)(NC(=O)CCl)C(=O)O (stereo unspecified)	98 % of control
CC(=O)OCc1ccc2ccccc2c1	106 % of control
C[n+]1cccc(C(=O)N/N=C/CCc2ccccc2)c1	94 % of control

Kindly consider the entry below.
Sample CCOC(=O)c1c(NC(=O)CCC(=O)Nc2sc(C)c(C)c2C(=O)OCC)sc(C)c1C — what was its T/C?
90 % of control

----------
System: L1210 leukemia ip in BDF1 mice, survival T/C
Assay: NCI In Vivo Anticancer Drug Screen. Data for tumor model L1210 Leukemia (intraperitoneal) in B6D2F1 (BDF1) mice
Details: endpoint: mean survival time; dose: 100.0 mg/kg/injection; schedule: Q01DX001 (ip); vehicle: saline; higher = longer survival
Inconclusive results and toxic doses are left out.
Listed below: T/C values for each entry.

Cc1ccc(C(CO)(CO)OC(CO)(CO)c2ccc(C)c(C)c2)cc1C	97 % of control

Give recorded T/C with L1210 leukemia ip in BDF1 mice, survival T/C for the following compound: CCCCNC(=O)c1ccc(C)c(OCc2ccccc2)c1[N+](=O)[O-]
108 % of control

Subsequent entry: COc1cccc(NC(=O)c2ccc(C(=O)Nc3cccc(OC)c3)cc2)c1
96 % of control

Subsequent entry: CC(C)=CCOc1ccc(C(=O)O)cc1
100 % of control

Subsequent entry: CCOc1cc(/C=N/N2CCN(/N=C/c3ccc(O)c(OCC)c3)CC2)ccc1O
117 % of control

Subsequent entry: CC/C(C)=N\O
101 % of control

----------
Tested on: L1210 leukemia ip in BDF1 mice, survival T/C
Experiment: NCI In Vivo Anticancer Drug Screen. Data for tumor model L1210 Leukemia (intraperitoneal) in B6D2F1 (BDF1) mice
Conditions: endpoint: mean survival time; dose: 200.0 mg/kg/injection; schedule: Q01DX001 (ip); vehicle: other; higher = longer survival
Inconclusive results and toxic doses are left out.
quantity: T/C

CN(CCO)/N=N/c1nc[nH]c1C#N	100 % of control

Kindly consider the entry below.
Sample ICc1ccc(CI)cc1 — what was its T/C?
88 % of control

----------
Listed below: T/C values for each entry.
Tested on: L1210 leukemia ip in BDF1 mice, survival T/C
Assay: NCI In Vivo Anticancer Drug Screen. Data for tumor model L1210 Leukemia (intraperitoneal) in B6D2F1 (BDF1) mice
Conditions: endpoint: mean survival time; dose: 75.0 mg/kg/injection; schedule: Q01DX001 (ip); vehicle: saline; higher = longer survival
Inconclusive results and toxic doses are left out.

Known results for compounds:
CCC1(C(C)Br)OC2=C(CC(C#N)(C#N)C(C#N)(C#N)C2)O1 (stereo unspecified)	100 % of control
O=C(O)c1cc(-c2ccc3cc4c(cc3c2)OCO4)nc2ccccc12	97 % of control

Sample O=Cc1ccc[n+](Cc2ccccc2)c1 — what was its T/C?
98 % of control

----------
Test system: L1210 leukemia ip in BDF1 mice, survival T/C
Experiment: NCI In Vivo Anticancer Drug Screen. Data for tumor model L1210 Leukemia (intraperitoneal) in B6D2F1 (BDF1) mice
Details: endpoint: mean survival time; dose: 200.0 mg/kg/injection; schedule: Q04DX002 (ip); vehicle: Klucel (hydroxypropylcellulose) (HPC); higher = longer survival
Toxic doses and inconclusive results are not listed.
Listed below: T/C values for each entry.

Known results for molecules:
COc1ccc(COC(=O)Nc2cc(OC)ccc2OC)cc1	101 % of control
C=CCNc1cc(NN)nn2nnnc12	104 % of control
O=C(COc1ccc(F)cc1Cl)OCCOCCO	95 % of control
CC(=O)Oc1cccc([N+](=O)[O-])c1	100 % of control
O=C(CC1C(=O)Nc2ccccc21)c1ccccc1 (centres undefined)	105 % of control

Sample Cc1ccc(C(=O)Cc2ccccc2)cc1 — what was its T/C?
98 % of control

Subsequent entry: CC(C)CC(=O)CC(O)C(Cl)(Cl)Cl (centres undefined)
93 % of control

Subsequent entry: COc1cc(NC(=O)Nc2ccc(F)c(Cl)c2)c(OC)cc1Cl
93 % of control

Subsequent entry: CC1(C)CCC2=C(C1)Nc1ccc(Cl)cc1NC2c1ccc([N+](=O)[O-])cc1 (centres undefined)
109 % of control
